The entries below are paired with their reported fraction unbound.
assay: Unbound fraction during UGT-mediated glucuronidation in human intestinal microsomes; conditions: microsomes
Readout Label: fraction unbound

Cc1ccc(C)c(OCCCC(C)(C)C(=O)O)c1 | 0.97
CCCc1nc2c(C)cc(-c3nc4ccccc4n3C)cc2n1Cc1ccc(-c2ccccc2C(=O)O)cc1 | 0.92
O=C(O)Cc1ccccc1Nc1c(Cl)cccc1Cl | 0.94
COc1ccc2c(c1)c(CC(=O)O)c(C)n2C(=O)c1ccc(Cl)cc1 | 0.8

---

assay: Unbound intrinsic clearance in human intestinal microsomes assessed UGT-mediated glucuronidation clearance
Property: CL free; scope: individual compounds
Readout Label: CL free

O=C(c1ccc(OCCN2CCCCC2)cc1)c1c(-c2ccc(O)cc2)sc2cc(O)ccc12 | 2224 µL/min/mg
Cc1ccc(C)c(OCCCC(C)(C)C(=O)O)c1 | 17.5 µL/min/mg
O=c1c(O)c(-c2ccc(O)c(O)c2)oc2cc(O)cc(O)c12 | 5133 µL/min/mg
CCc1cccc2c3c([nH]c12)C(CC)(CC(=O)O)OCC3 (centres undefined) | 5.7 µL/min/mg
